Reference for the values: patent US7388105B2

molecular target: alpha-N-acyl-glutamine-aminoacylase (Corynebacterium striatum, UniProt Q8GGD4); experiment: Competitive substrates of alpha-N-acyl-glutamine-aminoacylase: reduction of acid release; assay type: biochemical; settings: tested compound 0.2 mM; substrate alpha-N-decanoyl-glutamine 0.2 mM; release of decanoic acid vs positive control; 15 min; read-out: % Inhibition (DA)
Sequence (Q8GGD4 whole entry): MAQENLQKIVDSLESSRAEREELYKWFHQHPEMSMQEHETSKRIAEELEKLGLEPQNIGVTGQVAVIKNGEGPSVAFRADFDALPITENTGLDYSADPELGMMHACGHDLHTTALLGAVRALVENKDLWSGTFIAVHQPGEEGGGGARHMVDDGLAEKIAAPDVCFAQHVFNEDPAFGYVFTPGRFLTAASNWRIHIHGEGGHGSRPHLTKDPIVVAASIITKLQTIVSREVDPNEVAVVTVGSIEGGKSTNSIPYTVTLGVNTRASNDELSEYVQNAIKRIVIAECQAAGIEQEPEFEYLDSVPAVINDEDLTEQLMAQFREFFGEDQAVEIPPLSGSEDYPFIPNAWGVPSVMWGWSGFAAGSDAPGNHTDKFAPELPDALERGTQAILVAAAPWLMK
Classify by measured inhibition at 200 µM: Condition met if it is equal to or exceeds 20%, Condition not met if it is smaller.

Take a look at these entries with their results.
CC(C)=CCCC(C)CCOC(=O)NC(CCC(N)=O)C(=O)O (stereo not drawn) [Compound 4]
Condition met
CC1CCC(C(C)C)C(OC(=O)NC(CCC(N)=O)C(=O)O)C1 (stereo not drawn) [Compound 3]
Condition met
C=CCCCCCCCCC(=O)NC(CCC(N)=O)C(=O)O [Compound 2, alpha-N-(10-undecenoyl)-L-glutamine]
Condition not met
CC(CCOC(=O)NC(CCC(N)=O)C(=O)O)CCc1ccccc1 (stereo not drawn) [Compound 1]
Condition met
CC(C)(C)C1CCC(OC(=O)N[C@@H](CCC(N)=O)C(=O)O)CC1 (stereo partly drawn) [Compound 6]
Condition met

Query: Textbook exercise: given the entry CCCCOC(=O)N[C@@H](CCC(N)=O)C(=O)O [Compound 5, alpha-N-Butyloxycarbonyl-L-glutamine] , state whether its inhibition at 200 µM is greater than or equal to 20%.
Reply: Condition not met

###

Target: alpha-N-acyl-glutamine-aminoacylase (Corynebacterium striatum, UniProt Q8GGD4)
Assay: Competitive substrates of alpha-N-acyl-glutamine-aminoacylase: reduction of acid release
Assay type: biochemical
Conditions: tested compound 0.1 mM; substrate alpha-N-decanoyl-glutamine 0.2 mM; release of decanoic acid vs positive control; 15 min; read-out: % Inhibition (DA)
Method: In a sample, the enzyme alpha-N-acyl-glutamine-aminoacylase was used at a concentration of 36 ng/ml in Buffer A (50 mM NaCl; 50 mM NaH2PO4/K2HPO4; pH 7). To each sample, alpha-N-decanoyl-glutamine or alpha-N-(E)-3-methyl-2-hexenoyl-glutamine was added at a final concentration of 0.2 mM as a substrate. Further, to each sample various competitive substrates are added as shown in Table 1 below at different concentrations as indicated. […]
Classify by measured inhibition at 100 µM: 1.0 if it is equal to or exceeds 10%, 0.0 if it is smaller.

Take a look at these entries with their results.
C=CCCCCCCCCC(=O)NC(CCC(N)=O)C(=O)O (stereo not drawn)
0.0
CC(C)=CCCC(C)CCOC(=O)NC(CCC(N)=O)C(=O)O (stereo not drawn)
1.0
CC(CCOC(=O)NC(CCC(N)=O)C(=O)O)CCc1ccccc1 (stereo not drawn)
1.0
CCCCOC(=O)N[C@@H](CCC(N)=O)C(=O)O
0.0
CC1CCC(C(C)C)C(OC(=O)NC(CCC(N)=O)C(=O)O)C1 (stereo not drawn)
1.0

From here, focus on the item given below.
Query: Textbook exercise: given the entry CC(C)(C)C1CCC(OC(=O)N[C@@H](CCC(N)=O)C(=O)O)CC1 (stereo partly drawn) , state whether its inhibition at 100 µM is greater than or equal to 10%.
Reply: 1.0

###

inhibition at 400 µM by entry:
target: alpha-N-acyl-glutamine-aminoacylase (Corynebacterium striatum); test: Competitive substrates of alpha-N-acyl-glutamine-aminoacylase: reduction of acid release; assay type: biochemical; conditions: tested compound 0.4 mM; substrate alpha-N-(E)-3-methyl-2-hexenoyl-glutamine 0.2 mM; release of (E)-3-methyl-2-hexenoic acid vs positive control; 15 min; read-out: % Inhibition (MH)
Lab book: enter the figure in %, no units written.

// solved cases for inhibition at 400 µM follow
CC(C)=CCCC(C)CCOC(=O)NC(CCC(N)=O)C(=O)O (stereo not drawn)
16.1
C=CCCCCCCCCC(=O)NC(CCC(N)=O)C(=O)O (stereo not drawn)
24.2
CC(CCOC(=O)NC(CCC(N)=O)C(=O)O)CCc1ccccc1 (stereo not drawn)
78.3

Query: Test system alpha-N-acyl-glutamine-aminoacylase (Corynebacterium striatum); read-out inhibition at 400 µM; what value for CC(C)(C)C1CCC(OC(=O)N[C@@H](CCC(N)=O)C(=O)O)CC1 (stereo partly drawn) ?
Reply: 28.5

Query: Similarly, CC1CCC(C(C)C)C(OC(=O)NC(CCC(N)=O)C(=O)O)C1 (stereo not drawn) ?
Reply: 33.9

Query: Similarly, CCCCOC(=O)N[C@@H](CCC(N)=O)C(=O)O ?
Reply: 0

###

target: alpha-N-acyl-glutamine-aminoacylase (Corynebacterium striatum); assay: Competitive substrates of alpha-N-acyl-glutamine-aminoacylase: reduction of acid release; type: biochemical; conditions: tested compound 0.05 mM; substrate alpha-N-decanoyl-glutamine 0.2 mM; release of decanoic acid vs positive control; 15 min; read-out: % Inhibition (DA)
measured-endpoint: inhibition at 50 µM (%)
Lab book: enter the figure in %, no units written.

Query: GET /values?readout=inhibition at 50 µM&item= CC(C)=CCCC(C)CCOC(=O)NC(CCC(N)=O)C(=O)O (centres unmarked)
Reply: 15.9

Query: Similarly, C=CCCCCCCCCC(=O)NC(CCC(N)=O)C(=O)O (centres unmarked) ?
Reply: 0.9

Query: Similarly, CCCCOC(=O)N[C@@H](CCC(N)=O)C(=O)O ?
Reply: 6.7

Query: Similarly, CC(CCOC(=O)NC(CCC(N)=O)C(=O)O)CCc1ccccc1 (centres unmarked) ?
Reply: 38.3

Query: Similarly, CC(C)(C)C1CCC(OC(=O)N[C@@H](CCC(N)=O)C(=O)O)CC1 (some centres unmarked) ?
Reply: 11.3

###

inhibition at 100 µM by entry:
Molecular target: alpha-N-acyl-glutamine-aminoacylase (Corynebacterium striatum, UniProt Q8GGD4)
Experiment: Competitive substrates of alpha-N-acyl-glutamine-aminoacylase: reduction of acid release
Assay type: biochemical
Conditions: tested compound 0.1 mM; substrate alpha-N-(E)-3-methyl-2-hexenoyl-glutamine 0.2 mM; release of (E)-3-methyl-2-hexenoic acid vs positive control; 15 min; read-out: % Inhibition (MH)
Description: In a sample, the enzyme alpha-N-acyl-glutamine-aminoacylase was used at a concentration of 36 ng/ml in Buffer A (50 mM NaCl; 50 mM NaH2PO4/K2HPO4; pH 7). To each sample, alpha-N-decanoyl-glutamine or alpha-N-(E)-3-methyl-2-hexenoyl-glutamine was added at a final concentration of 0.2 mM as a substrate. Further, to each sample various competitive substrates are added as shown in Table 1 below at different concentrations as indicated. […]
Please answer using the number first and the unit second.

C=CCCCCCCCCC(=O)NC(CCC(N)=O)C(=O)O [Compound 2, alpha-N-(10-undecenoyl)-L-glutamine]
0%

Query: Test system alpha-N-acyl-glutamine-aminoacylase (Corynebacterium striatum, UniProt Q8GGD4); read-out inhibition at 100 µM; what value for CC(C)=CCCC(C)CCOC(=O)NC(CCC(N)=O)C(=O)O (stereo not drawn) [Compound 4] ?
Reply: -0.3%

###

biological target: alpha-N-acyl-glutamine-aminoacylase (Corynebacterium striatum, UniProt Q8GGD4); test: Competitive substrates of alpha-N-acyl-glutamine-aminoacylase: reduction of acid release; type: biochemical; details: tested compound 0.2 mM; substrate alpha-N-(E)-3-methyl-2-hexenoyl-glutamine 0.2 mM; release of (E)-3-methyl-2-hexenoic acid vs positive control; 15 min; read-out: % Inhibition (MH)
inhibition at 200 µM by entry:
Lab book: enter the figure in %, no units written.

// solved cases for inhibition at 200 µM follow
C=CCCCCCCCCC(=O)NC(CCC(N)=O)C(=O)O (stereo not drawn)
2.1
CC(CCOC(=O)NC(CCC(N)=O)C(=O)O)CCc1ccccc1 (stereo not drawn)
58.1
CC1CCC(C(C)C)C(OC(=O)NC(CCC(N)=O)C(=O)O)C1 (stereo not drawn)
16.5

Query: Test system alpha-N-acyl-glutamine-aminoacylase (Corynebacterium striatum, UniProt Q8GGD4); read-out inhibition at 200 µM; what value for CC(C)=CCCC(C)CCOC(=O)NC(CCC(N)=O)C(=O)O (stereo not drawn) ?
Reply: 17.1

Query: Similarly, CC(C)(C)C1CCC(OC(=O)N[C@@H](CCC(N)=O)C(=O)O)CC1 (stereo partly drawn) ?
Reply: 14.8

Query: Similarly, CCCCOC(=O)N[C@@H](CCC(N)=O)C(=O)O ?
Reply: 0

###

Biological target: alpha-N-acyl-glutamine-aminoacylase (Corynebacterium striatum)
Assay: Competitive substrates of alpha-N-acyl-glutamine-aminoacylase: reduction of acid release
Type: biochemical
Details: tested compound 0.1 mM; substrate alpha-N-(E)-3-methyl-2-hexenoyl-glutamine 0.2 mM; release of (E)-3-methyl-2-hexenoic acid vs positive control; 15 min; read-out: % Inhibition (MH)
Experimental: In a sample, the enzyme alpha-N-acyl-glutamine-aminoacylase was used at a concentration of 36 ng/ml in Buffer A (50 mM NaCl; 50 mM NaH2PO4/K2HPO4; pH 7). To each sample, alpha-N-decanoyl-glutamine or alpha-N-(E)-3-methyl-2-hexenoyl-glutamine was added at a final concentration of 0.2 mM as a substrate. Further, to each sample various competitive substrates are added as shown in Table 1 below at different concentrations as indicated. […]
inhibition at 100 µM by entry:
Lab book: enter the figure in %, no units written.

CCCCOC(=O)N[C@@H](CCC(N)=O)C(=O)O
1.1

Query: GET /values?readout=inhibition at 100 µM&item= CC(CCOC(=O)NC(CCC(N)=O)C(=O)O)CCc1ccccc1 (stereo not shown)
Reply: 35.5

Query: Similarly, CC(C)(C)C1CCC(OC(=O)N[C@@H](CCC(N)=O)C(=O)O)CC1 (stereo partly shown) ?
Reply: 4.9

Query: Similarly, CC1CCC(C(C)C)C(OC(=O)NC(CCC(N)=O)C(=O)O)C1 (stereo not shown) ?
Reply: 7.4
